Target: T1, Rabbit v6-peptide (rabbit)
T1 construct: domain: v6-region (43 amino acids); also called Rb v6-peptide; rb v6-peptide
Assay: SPR SCK, antibody immobilised, peptide injected
Examples of binders with documented kon follow.
Form field: result (number plus unit)

Below, 3 binders whose answers are already recorded.
>>> observed("AL-MN114-132 IgG1 LALA (antibody, V domains shown, item 20 iii) gives heavy 77 / light 96 without naming the format) VH: EVQLLESGGGLVQPGGSLRLSCAASGFTFSSYAMSWVRQAPGKGLEWVSAISGGGSSTYYADSVKGRFTISRDNSKNTLYLQMNSLRAEDTAVYYCARHYYSDSDYRSSAAMDYWGQGTLVTVSS VL: DIQMTQSPSSLSASVGDRVTITCRASQSISSYLNWYQQKPGKAPKLLIYAASSLQSGVPSRFSGSGSGTDFTLTISSLQPEDFATYYCQQDLYLLTFGQGTKLEIK")
"1.7e+06 M⁻¹ s⁻¹"
>>> observed("AL-MN114-132 IgG1 LALA IAHA (antibody, V domains shown, Human IgG1 LALA IAHA, kappa) VH: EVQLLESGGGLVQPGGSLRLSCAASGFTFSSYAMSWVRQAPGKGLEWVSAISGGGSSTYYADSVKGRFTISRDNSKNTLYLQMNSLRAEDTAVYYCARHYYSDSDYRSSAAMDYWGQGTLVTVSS VL: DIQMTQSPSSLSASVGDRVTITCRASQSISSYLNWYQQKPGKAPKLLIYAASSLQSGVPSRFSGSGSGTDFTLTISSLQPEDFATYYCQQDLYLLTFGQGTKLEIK")
"990000 M⁻¹ s⁻¹"
>>> observed("AL-MN114-465 IgG1 LALA IAHA (antibody, V domains shown, Human IgG1 LALA IAHA, kappa) VH: EVQLLESGGGLVQPGGSLRLSCAASGFSFGSYAMSWVRQAPGKGLEWVSAISAGGSSTFYADSVKGRFTISRDNSKNTLYLQMNSLRAEDTAVYYCARHYYSDSDYRSSAAMDYWGQGTLVTVSS VL: DIQMTQSPSSLSASVGDRVTITCRASQSISSYLNWYQQKPGKAPKLLIYTASSLQSGVPSRFSGSGSGTDFTLTISSLQPEDFATYYCQQDLYLLTFGQGTKLEIK")
"830000 M⁻¹ s⁻¹"

Continue with the next binder.
Q: Tell me measured kon for AL-MN114-444 IgG1 LALA IAHA (antibody, V domains shown, Human IgG1 LALA IAHA, kappa) VH: EVQLLESGGGLVQPGGSLRLSCAASGFTFRSFAMSWVRQAPGKGLEWVSAISGGGSSTFYADSVKGRFTISRDNSKNTLYLQMNSLRAEDTAVYYCARHYYSDSDYRSSAAMDYWGQGTLVTVSS VL: DIQMTQSPSSLSASVGDRVTITCRASQSIGSYLNWYQQKPGKAPKLLIYSASSLQSGVPSRFSGSGSGTDFTLTISSLQPEDFATYYCQQDLYLLTFGQGTKLEIK please.
A: 820000 M⁻¹ s⁻¹
